- assayed_system: T1, human PD-1 expressed on cells (CHO human PD-1 cells) (human, UniProt Q15116 21-288)
- T1 construct: also called CHO TREX human PD-1 cell line; CHO PD-1
- T1 sequence (Q15116 21-288): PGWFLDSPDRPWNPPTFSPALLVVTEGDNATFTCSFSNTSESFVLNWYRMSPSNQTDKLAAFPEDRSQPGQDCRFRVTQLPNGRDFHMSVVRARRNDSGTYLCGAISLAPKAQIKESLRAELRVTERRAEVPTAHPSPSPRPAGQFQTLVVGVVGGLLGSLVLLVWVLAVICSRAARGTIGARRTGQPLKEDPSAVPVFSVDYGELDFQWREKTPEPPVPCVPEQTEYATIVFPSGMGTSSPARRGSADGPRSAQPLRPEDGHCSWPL
- assay_details: FMAT inhibition; 100 pM PD-L1-Fc on CHO human PD-1 cells
IC50 reference
experimental_readout: IC50 (nM)

INSERT INTO assay_data (binder, experimental_readout, numeric_result) VALUES
  ('Humabody® 1.90 (VHH, human VH single domain antibody) VHH: EVQLVESGGGLVKPGGSLRLSCAASGFTFSDVSMTWMRQAPGKGLEWVSYISSGGGVKFYADSVKGRFTISRDNAKNSLYLQMNSLRAEDTAVYYCAREAPLRLGESPHDAFDISGQGTMVTVSS', 'IC50', 3),
  ('Humabody® 1.97 (VHH, human VH single domain antibody) VHH: EVQLVESGGGLVKPGGSLRLSCAASGFTFSDISMTWMRQAPGKGLEWVSYISSGGGVKFYADSVKGRFTISRDNAKNSLYLQMNSLRAEDTAVYYCAREAPLRLGESPHDAFDISGQGTMVTVSS', 'IC50', 3.32),
  ('Humabody® 1.80 (VHH, human VH single domain antibody) VHH: EVQLVESGGGLVKPGGSLRLSCAASGFTFSDSSMTWMRQAPGKGLEWVSYISSGGGVKFYADSVKGRFTISRDNAKNSLYLQMNSLRAEDTAVYYCAREAPLRLGESPHDAFDISGQGTMVTVSS', 'IC50', 1.82),
  ('Humabody® 1.62 (VHH, human VH single domain antibody) VHH: QVQLVESGGGLVKPGGSLRLSCAASGFTFSDSSMTWMRQAPGKGLEWVSYISSGGAVKFYTDSVKGRFTISRDNAKNSLYLQMNSLRADDTAVYYCAREAPLRLGESPHDAFDISGQGTMVTVSS', 'IC50', 5.7);
